max response values by entry
- test-name: qHTS Assay for Identifying Gametocytocidal Compounds (AID 743244);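 further: on the % scale 0 is the no-effect control and ±100 the full control effect; actives lower the fluorescent signal which means gametocytes are killed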
- measurement-setup: P. falciparum 3D7 stage III-V gametocytes, alamarBlue, 72 h; stronger effect = lower value
Inconclusive results are not listed.
Dear colleague, please return just the value in %, with no unit written.

Solved cases below.
molecule	measurement-type	reading
CCCCOC(=O)c1ccccc1C(=O)OCc1ccccc1	max response	13.2
O=S(=O)(O)C(F)(F)C(F)(F)C(F)(F)C(F)(F)F	max response	-9.45

# evaluate next
stdin: What max response value was documented for this compound, `CC(C)Oc1cccnc1N(C)C1CCN(Cc2ccccc2)CC1` ?
stdout: -6.11

====

- Tested on: Tov-21-G
- test-name: Primary qHTS to identify gynecologic anti-cancer compounds using libraries of approved drugs and bioactive compounds (AID 1345084); further: nearly all actives have a fitted effect of over 55% in size
- measurement-setup: Gynecologic cancer cell panel viability, ATPlite luminescence, 48 h; series mostly up to 57.5 µM
Inconclusive results are not listed. Calls of active or inactive are those of the source. The call rests on the fitted dose curve; in most records, active means well fitted cell-killing curve with a large enough effect; inconclusive means small, poorly fitted or top-dose-only effect, or effect the other way; inactive means flat fitted curve, though single readings scatter.
Write down the outcome that applies. Available outcomes: active, inactive

Study these solved cases before continuing.
molecule	classification
CC(=O)N(C)c1cccc(-c2ccnc3c(C(=O)c4cccs4)cnn23)c1	inactive
CC(=O)NCCc1c[nH]c2ccccc12	inactive
CCO/N=C(\CC)C1=C(O)CC(c2c(C)cc(C)cc2C)CC1=O (stereo unspecified)	inactive
C=CCC1=C(C)C(OC(=O)C2C(C=C(C)C)C2(C)C)CC1=O (stereo unspecified)	inactive
C=CC(=O)NCNC(=O)C=C	inactive

Note: attention shifts to another entry.
stdin: What is the recorded call for this molecule in the test? `CCN1CCN(C(=O)Cc2ccc(Nc3ncc(F)c(Nc4ccc(C(=O)Nc5ccccc5Cl)cc4)n3)cc2)CC1`
stdout: active

====

Listing of recorded max response by entry.
- test-name: qHTS assay for small molecule agonists of the antioxidant response element (ARE) signaling pathway measured by Nrf2-dependant transcriptional activity - cell viability counter screen (AID 720653); further: on the % scale 0 is the no-effect control and ±100 the full control effect
- measurement-setup: ARE-bla HepG2 viability, CellTiter-Glo ATP luminescence, 16 h; stronger effect = lower value
Records with an inconclusive call do not appear.
# unit: % | format: bare number

compound	max response / %
CC(C)(C)C(O)C(Oc1ccc(Cl)cc1)n1cncn1 (stereo not given)	-9.81

stdin: Return reported max response; argument: `Nc1cccc2c(N)cccc12`
stdout: -13.9

stdin: Requested read-out: max response. Entry: `O=C(O)c1cc(Oc2ccc(C(F)(F)F)cc2Cl)ccc1[N+](=O)[O-]`
stdout: -5.54

stdin: Could you share which max response value was measured for `O=C(O)CCCOc1ccc(Cl)cc1Cl` ?
stdout: -1.4

stdin: Query: max response; subject: `CS(=O)(=O)c1ccc(C(=O)C2C(=O)CCCC2=O)c([N+](=O)[O-])c1`
stdout: -7.62

stdin: Query: max response; subject: `Nc1ccc(Cl)cc1N`
stdout: -19.8

stdin: Any idea what max response was measured for `CCOCCOC(C)=O` ?
stdout: 4.03

stdin: Item CCO/N=C(\CC)C1=C(O)CC(c2c(C)cc(C)cc2C)CC1=O (stereo not given) has what recorded max response?
stdout: 1.75

stdin: Reported max response for `Clc1cnc(Oc2ccc(Oc3ncc(Cl)cc3Cl)cc2)c(Cl)c1` : what is it?
stdout: -6.15

stdin: So what does the record say about max response for `O=C(O)COc1ccccc1` ?
stdout: -7.55

stdin: Field request: max response | item: `ClC1=C(Cl)[C@]2(Cl)[C@@H]3[C@@H]4C[C@@H]([C@H]5O[C@@H]45)[C@@H]3[C@@]1(Cl)C2(Cl)Cl`
stdout: -16.9

stdin: What value of max response has been reported for the following compound? `Nc1ccc([N+](=O)[O-])cc1`
stdout: -0.336

stdin: Need max response, item `CCCCCC[C@H]1C(=O)O[C@H](C)[C@H](NC(=O)c2cccc(NC=O)c2O)C(=O)O[C@@H](C)[C@@H]1OC(=O)CC(C)C`
stdout: -26.8

stdin: Any idea what max response was measured for `Cc1cc(O)ccc1Cl` ?
stdout: 3.07

stdin: May I ask what max response has been recorded for `O=[N+]([O-])/N=C1\NCCN1Cc1ccc(Cl)nc1` ?
stdout: 8.85

stdin: What value of max response has been recorded for this entry: `COc1nn(CSP(=S)(OC)OC)c(=O)s1`
stdout: -11.6

====

- test-name: Primary qHTS to identify inhibitors of SARS-CoV-2 cell entry (AID 1645846); further: nearly all actives have a fitted effect of over 45% in size
- measurement-setup: SARS-CoV-2 pseudovirus cell entry assay, luminescence; at 57.1 µM (top of the series) unless noted
Results filed as inconclusive are left out.
measurement-type: activity change, negative = inhibition (%)
Express it in %; write the number only.

Some molecules with recorded activity change, negative = inhibition:
molecule	reading-unit	activity change, negative = inhibition
CCCS(=O)(=O)Nc1ccc(F)c(C(=O)c2c[nH]c3ncc(-c4ccc(Cl)cc4)cc23)c1F	%	-8.78
Cc1ccnc(NS(=O)(=O)c2ccc(NC(=O)Nc3ccc(S(=O)(=O)Nc4nccc(C)n4)cc3)cc2)n1	%	-16.3
O=C(O)[C@@H](c1ccc(OCc2ccc3ccccc3n2)cc1)C1CCCC1	%	-23.5

Next:
stdin: Name the reported activity change, negative = inhibition value associated with the molecule `CN(C)[C@@H]1C(=O)C(C(N)=O)=C(O)[C@@]2(O)C(=O)C3=C(O)c4c(O)cccc4[C@@](C)(O)[C@H]3[C@H](O)[C@@H]12`
stdout: -8.27

====

- test-name: qHTS for differential inhibitors of proliferation of Plasmodium falciparum line 3D7 (AID 1876)
- measurement-setup: P. falciparum 3D7 proliferation inhibition; series mostly up to 28.7 µM
Records with an inconclusive call do not appear. The source made the active and inactive calls. Calls come from the whole dose curve; as a rule, active = well fitted curve in the direction sought with a large enough effect; inconclusive = small, poorly fitted or top-dose-only effect, or another doubt; inactive = no such curve, though single readings can be large or run the other way.
Your answer must be one of the following: true for active, false for inactive

stdin: // param item: `C[N+](C)(C)CC(=O)O` ; yields the recorded call
stdout: false

stdin: Outcome logged for `Cn1cnc(CCN)c1` in this assay:
stdout: false

stdin: Please state the recorded outcome for this compound: `c1ccc(CCCN2CCN(CCOC(c3ccccc3)c3ccccc3)CC2)cc1`
stdout: true

stdin: So what was the verdict on `O=C1CCCN1CC#CCN1CCCC1` in this test?
stdout: false

stdin: What outcome does the record of this test show for `CCCN1CCC[C@H](c2cccc(O)c2)C1` ?
stdout: false

stdin: Which outcome did this test record for the compound CN1C2CCC1CC(OC(=O)c1cc(Cl)cc(Cl)c1)C2 (centres undefined) ?
stdout: true

stdin: Recorded call for NC(N)=NOCCC(N)C(=O)O (centres undefined) ?
stdout: false

stdin: What did the test return for `CC[C@@H]1C(=O)OC[C@@H]1Cc1cncn1C` ?
stdout: false

stdin: Which result was noted for this compound in the test: `CC[C@@]1(O)C(=O)OCc2c1cc1n(c2=O)Cc2cc3ccccc3nc2-1`
stdout: true

====

- test-name: Quantitative High-Throughput drug screen in 47 multiple myeloma cell lines against the NCATS MIPE library collection: XG1_PLB cell viability assay (AID 1919866); further: nearly all actives have a fitted effect of over 35% in size; further: potency means the concentration at half of the fitted maximal effect
- measurement-setup: CellTiter-Glo ATP, 48 h; series mostly up to 45.8 µM
Records with an inconclusive call do not appear. The source made the active and inactive calls. Calls come from the whole dose curve; as a rule, active = well fitted cell-killing curve with a large enough effect; inconclusive = small, poorly fitted or top-dose-only effect, or effect the other way; inactive = no such curve, though single readings can be large or run the other way.
measurement-type: Potency

Past entries and their recorded results:
molecule	Potency
CCc1c(C(=O)C(N)=O)c2c(OCC(=O)O)cccc2n1Cc1ccccc1	inactive
CC(=O)N(C)c1cccc(-c2ccnc3c(C(=O)c4cccs4)cnn23)c1	inactive
Oc1ccc2c3c1O[C@H]1c4[nH]c5c(c4C[C@@]4(O)[C@@H](C2)N(CC2CC2)CC[C@]314)C[C@@]1(O)[C@H]2Cc3ccc(O)c4c3[C@@]1(CCN2CC1CC1)[C@H]5O4	inactive
O=C(O)CNC(=O)c1c(O)c2ccccc2n(Cc2ccccc2)c1=O	inactive
C[C@]12CC[C@H]3[C@@H](CCC4=CC(=O)CC[C@@]43C)[C@H]1CC[C@H]2OC(=O)CCC1CCCC1	inactive
O=[N+]([O-])c1ncc[nH]1	inactive
NC1CC1c1ccccc1 (stereo unspecified)	inactive
NC1=NC(=O)N2CC12 (stereo unspecified)	11.8 µM (active)

stdin: Reported Potency, molecule `Cc1nc(-c2ccc(-c3ccc(C(=O)N4CCc5cc6c(cc54)C4(CCN(C)CC4)CO6)cc3)c(C)c2)no1` : ____
stdout: inactive

stdin: What value of measured Potency is listed for `O=c1[nH]c2ccccc2n1C1CCN(Cc2ccc(-c3[nH]c4cc5ncnc5cc4nc3-c3ccccc3)cc2)CC1` ?
stdout: 7.43 µM (active)

stdin: Using the record for `C[C@]12Cc3cn[nH]c3C[C@@H]1CC[C@@H]1[C@H]2CC[C@@]2(C)[C@H]1CC[C@]2(C)O` , report its Potency.
stdout: inactive

====

- measurement-target: Nucleoprotein (Lymphocytic choriomeningitis virus (strain Armstrong))
- test-name: qHTS for Inhibitors of the Functional Ribonucleoprotein Complex (vRNP) of Lymphocytic Choriomeningitis Arenaviruses (LCMV): LCMV Primary Screen - GLuc reporter signal (AID 1347086); further: nearly all actives have a fitted effect of over 70% in size
- measurement-setup: LCMV minigenome vRNP cell assay, Gaussia luciferase reporter; series mostly up to 57.5 µM
Inconclusive results are not listed. Activity calls are given as the source filed them. Calls follow the shape of the full dose curve.
Use one of these outcomes when replying: active, inactive

molecule	classification
COc1c(Cl)cc2c([nH]c3cnccc32)c1NC(=O)c1cccnc1C	inactive

stdin: Status in this test for `O=C(O)COc1nc(Cl)c(Cl)cc1Cl` ?
stdout: inactive

stdin: What was the test verdict on `CN1CCN(CCOc2cc(OC3CCOCC3)c3c(Nc4c(Cl)ccc5c4OCO5)ncnc3c2)CC1` ?
stdout: inactive

stdin: Outcome logged for `CSCC[C@@H](NC(=O)[C@@H](Cc1ccccc1)NC(=O)CNC(=O)CNC(=O)[C@@H](N)Cc1ccc(O)cc1)C(=O)O` in this assay:
stdout: inactive

stdin: Recorded test call requested for `CN(C)CCN(C)C(=O)c1ccc(NC(=O)Nc2ccc(-c3nc(N4CCOCC4)c4ccn(CC(F)(F)F)c4n3)cc2)cc1`
stdout: active

stdin: Recorded call for `C[C@@H]1CN(c2c(F)c(N)c3c(=O)c(C(=O)O)cn(C4CC4)c3c2F)C[C@H](C)N1` ?
stdout: inactive

stdin: # outcome recorded in this test, key = CC(=O)NC(C)c1ccc(Oc2ccc(OC(C)C)cc2)cc1 (centres undefined)
stdout: inactive

stdin: Per the records of this test, what outcome belongs to `CN(C)[C@@H]1C(=O)C(C(N)=O)=C(O)[C@@]2(O)C(=O)C3=C(O)c4c(O)cccc4[C@@](C)(O)[C@H]3[C@H](O)[C@@H]12` ?
stdout: inactive

stdin: For this molecule, state the assay outcome: `CN1Cc2cc(C(=O)N3CCC(C4CCNCC4)CC3)ccc2N[C@@H](CC(=O)O)C1=O`
stdout: inactive
